- Test system: MET
- protocol_details: MET biochemical kinase assay
- Design: species or system human; concentration or dose not given beside the values
Quick rule for you: Met Kinase % Inhibition at 40% or higher means YES, lower means NO.

# example entries with known answers
CCN(CC)c1ccc(C=C2C(=O)Nc3ccc(Br)c(C)c32)cc1 | YES
Cc1c(Br)ccc2c1C(=Cc1cc(O)ccc1O)C(=O)N2 | YES

Moving on to another molecule below.
Reported Met Kinase % Inhibition reaches at least 40% for CNS(=O)(=O)c1ccc2c(c1)C(=Cc1cc(I)c(OC)c(C(C)(C)C)c1)C(=O)N2 ?
YES

* * *

Listed below: Biochem EGFR %Inhibition values for each entry.
- study_system: EGFR (Homo sapiens, UniProt P00533)
- Construct: Add 7 ug A431 cell lysate per well (EGFR source); endogenous in cells; host or cells: A431
- Sequence (P00533 25-1210): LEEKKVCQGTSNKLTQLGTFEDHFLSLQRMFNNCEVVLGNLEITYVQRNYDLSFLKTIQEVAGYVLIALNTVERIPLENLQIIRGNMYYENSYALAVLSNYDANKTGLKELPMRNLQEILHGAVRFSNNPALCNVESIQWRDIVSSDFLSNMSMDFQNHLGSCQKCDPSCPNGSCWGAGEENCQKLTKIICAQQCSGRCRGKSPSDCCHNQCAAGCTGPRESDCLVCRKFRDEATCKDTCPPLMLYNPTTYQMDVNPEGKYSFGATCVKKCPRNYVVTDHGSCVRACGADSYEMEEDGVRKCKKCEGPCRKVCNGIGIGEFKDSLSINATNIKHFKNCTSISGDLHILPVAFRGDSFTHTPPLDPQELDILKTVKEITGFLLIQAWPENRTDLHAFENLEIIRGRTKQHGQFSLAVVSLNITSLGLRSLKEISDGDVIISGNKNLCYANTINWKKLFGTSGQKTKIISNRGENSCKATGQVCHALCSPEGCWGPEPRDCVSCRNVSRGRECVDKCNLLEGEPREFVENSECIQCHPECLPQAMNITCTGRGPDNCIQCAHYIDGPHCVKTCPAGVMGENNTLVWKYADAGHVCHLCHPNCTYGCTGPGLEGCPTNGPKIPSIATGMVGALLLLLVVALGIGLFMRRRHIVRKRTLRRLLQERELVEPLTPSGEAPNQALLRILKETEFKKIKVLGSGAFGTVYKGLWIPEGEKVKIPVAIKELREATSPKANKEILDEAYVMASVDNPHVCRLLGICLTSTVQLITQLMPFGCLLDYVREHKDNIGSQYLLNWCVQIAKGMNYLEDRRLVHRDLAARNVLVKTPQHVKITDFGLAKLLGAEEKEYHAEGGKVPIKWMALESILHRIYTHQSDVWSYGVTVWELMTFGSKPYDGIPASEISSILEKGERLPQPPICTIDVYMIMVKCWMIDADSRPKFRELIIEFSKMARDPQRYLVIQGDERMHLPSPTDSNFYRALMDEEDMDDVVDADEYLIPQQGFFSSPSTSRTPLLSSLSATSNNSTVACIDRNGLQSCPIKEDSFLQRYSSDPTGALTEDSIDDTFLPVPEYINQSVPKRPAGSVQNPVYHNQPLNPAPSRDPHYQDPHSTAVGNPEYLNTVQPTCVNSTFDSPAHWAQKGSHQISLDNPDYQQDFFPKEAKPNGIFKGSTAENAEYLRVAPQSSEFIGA
- protocol_details: EGFR ELISA assay (in vitro kinase activity, EGFR captured from A431 cell lysate)
- Type: biochemical
- Parameters: concentration or dose not given beside the values
- From the text: To provide a consistent method for measuring the in vitro kinase activity of the EGFR in an Enzyme-linked immunosorbent assay (Elisa). Scope. The following protocol describes the procedures used to analyze protein tyrosine kinase activity on the EGFR in an Elisa. The procedure also describes the protocol for the initial screening of drugs for inhibition or activation of protein tyrosine kinase activity. Reagents and Supplies. • 1. […]
Your answer should be a number followed by the unit of measure.

State, for EGFR (Homo sapiens, UniProt P00533), measured Biochem EGFR %Inhibition of the compound listed here: Cc1cn(C)cc1C=C1C(=O)Nc2ccc(S(=O)(=O)Nc3ccc(C(F)(F)F)cc3)cc21
-20.6%

Lab note: record Biochem EGFR %Inhibition of Cc1cc(O)cc(O)c1C=C1C(=O)Nc2ccc(S(=O)(=O)Nc3ccc(C(F)(F)F)cc3)cc21 tested on EGFR (Homo sapiens, UniProt P00533).
37.4%

Under EGFR (Homo sapiens, UniProt P00533), report Biochem EGFR %Inhibition for COc1cc(Br)cc(C=C2C(=O)Nc3ccc(Br)c(C)c32)c1O
65.8%

Under EGFR (Homo sapiens, UniProt P00533): report Biochem EGFR %Inhibition of O=C1Nc2c(Br)cc(Br)cc2C1=Cc1cccs1 .
1.0%

Tell me its Biochem EGFR %Inhibition on EGFR (Homo sapiens, UniProt P00533): CNS(=O)(=O)c1ccc2c(c1)C(=Cc1sccc1C)C(=O)N2
22.1%

Look up EGFR (Homo sapiens, UniProt P00533) data: Biochem EGFR %Inhibition of CC(C)c1ccc2occ(C=C3C(=O)Nc4c(Br)cc(Br)cc43)c(=O)c2c1 , then report it.
34.3%

Consider the compound Cc1c(Br)ccc2c1C(=Cc1ccc(Cl)s1)C(=O)N2 tested on EGFR (Homo sapiens, UniProt P00533); state its Biochem EGFR %Inhibition.
24.6%
